Value source: the MegaScale stability set (Tsuboyama et al. 2023)

B1: r11_951_TrROS_Hall (parent)
chain: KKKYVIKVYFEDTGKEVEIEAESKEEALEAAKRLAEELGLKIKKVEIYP

Variants of: B1
test description: folding stability dG (cDNA display proteolysis); higher = more stable
measurement parameters: PBS, room temperature
Below: a set of entries, each annotated with reported folding stability dG.

variant key | unit string | folding stability dG
P49S | kcal/mol | 4.62
E29G | kcal/mol | 4.29
S23A | kcal/mol | 4.08
E37P | kcal/mol | 2.86
F10E | kcal/mol | 2.52
E37Y | kcal/mol | 4.82
E46D | kcal/mol | 4.38
V8L | kcal/mol | 4.25
I6K | kcal/mol | 0.69
L38C | kcal/mol | 4.07
K15V | kcal/mol | 4.37
D12I | kcal/mol | 4.66
E18R | kcal/mol | 4.19
I6R | kcal/mol | 0.95
E22N | kcal/mol | 4.38
Y9S | kcal/mol | 4.16
K7P | kcal/mol | 1.45
K24C | kcal/mol | 4.53
V45S | kcal/mol | 3.94
T13C | kcal/mol | 3.6
L28T | kcal/mol | 4.16
K43W | kcal/mol | 4.81
S23Y | kcal/mol | 3.98
E18V | kcal/mol | 4.35
G14D | kcal/mol | 4.37
E16G | kcal/mol | 4.35
